Attribution: patent US20230143604A1

System name: T1, full-length human GIPR with an N-terminal FLAG tag (human, UniProt P48546 22-466)
T1 sequence (looked up): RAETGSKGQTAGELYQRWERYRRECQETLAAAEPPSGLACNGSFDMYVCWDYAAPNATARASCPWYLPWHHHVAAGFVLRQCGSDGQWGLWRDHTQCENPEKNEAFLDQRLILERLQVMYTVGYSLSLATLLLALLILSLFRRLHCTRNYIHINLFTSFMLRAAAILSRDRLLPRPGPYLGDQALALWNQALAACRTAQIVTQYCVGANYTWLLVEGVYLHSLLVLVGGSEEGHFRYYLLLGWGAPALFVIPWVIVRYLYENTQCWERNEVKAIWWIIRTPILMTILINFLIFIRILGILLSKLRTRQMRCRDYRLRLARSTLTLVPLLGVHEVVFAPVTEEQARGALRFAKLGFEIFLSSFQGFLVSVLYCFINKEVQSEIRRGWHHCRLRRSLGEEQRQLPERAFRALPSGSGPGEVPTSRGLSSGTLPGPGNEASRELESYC
Measurement protocol: cell-based or functional assay
Starred links: 1 amine or outer side, 2 acyl side, 3 side chain; linkers in the order of their positions; H or OH if unused. Non-standard residues stand in square brackets, D forms with d. Groups on a side chain read outwards from the residue. No end group written: not given here. *: point of attachment. C18 diacid = O=C(O)CCCCCCCCCCCCCCCCC(=O)*; C17 diacid = O=C(O)CCCCCCCCCCCCCCCC(=O)*; γGlu = O=C(O)[C@H](CCC(=O)[*:2])N[*:1]; NMeY = CN[C@@H](Cc1ccc(O)cc1)C(=O)O; AEEA = NCCOCCOCC(=O)O; Aib = CC(C)(N)C(=O)O
Property measured: Human GIPR cAMP EC50, HEK293T
Answer format: value, then unit.

If you can, please state the reported Human GIPR cAMP EC50, HEK293T value of [NMeY][Aib]EGTFISDYSI[Aib]K([AEEA-AEEA-γGlu-γGlu-C17 diacid])DR[Aib]AQ[Aib]NFVNWLLAQRPSSGAPPPS-NH2 [Compound No. 14] .
0.3 pM

Quick one: Human GIPR cAMP EC50, HEK293T of YXEGTFISDYSIALDRXAQXDFVNWLLAQRPSSGAPPPS (N-methyl Tyr 1; Aib at 2,20; Lys(G5-C18 diacid) at 17; C-terminal OH) [Compound No. 51] ?
0.6 pM

I'd like to know its Human GIPR cAMP EC50, HEK293T. The binder in question is [NMeY][Aib]EGTFISDYSIALDRK([AEEA-AEEA-γGlu-C18 diacid])AQ[Aib]DFVNWLLAQRPSSGAPPPS-NH2 [Compound No. 23]
0.3 pM

Recorded Human GIPR cAMP EC50, HEK293T of [NMeY][Aib]EGTFISDYSIALDR[Aib]AQ[Aib]K([GGPAPAP-C18 diacid])FVNWLLAQSPSSGAPPPS-OH [Compound No. 103] , please.
1.7 pM

Entry YXEGTFISDYSIAXDRXAQXDFVNWLLAQRPSSGAPPPS (N-methyl Tyr 1; Aib at 2,17,20; Lys(G5-C18 diacid) at 14; C-terminal OH) [Compound No. 43] has what Human GIPR cAMP EC50, HEK293T?
1 pM
